- Tested on: Wolbachia pipientis
- ASSAY COMMENT: Anti-Wolbachia Cell-Based Screen
- Assay type: functional
- Set-up: scale not given: in the data most compounds retested in dose-response had high values
- CONDITION PARAMETERS: 5 µM
The campaign covered roughly 48,000 compounds. About 13,000 (27%) showed an effect of 50% or more. This is one part of the list.
Give measured Percent Effect for each item. Keep answers brief.
Answers are plain numbers, in %.

CCOCC(O)CN1CCN(C(=O)Cc2ccccc2C)CC1 (stereo unspecified) | -8.235
CCOCC(O)CN1CCN(C(=O)Cc2ccc(C)nc2)CC1 (stereo unspecified) | -10.97
Cc1n[nH]c(C)c1CC(=O)N1CCCN(C)C2(CCN(C)CC2)C1 | 0.449
Cc1cc(CC(=O)N2CCN(CC3CC3)[C@@H]3CS(=O)(=O)C[C@@H]32)ccc1F | 7.302
Cl.NCC1(c2cccc(Br)c2)CCOCC1 | -3.113

Next compound, please.
Jot down Percent Effect (Wolbachia pipientis) of CCC(O)CN1CCN(C(=O)Cc2cc(C)ccc2OC)CC1 (stereo unspecified) .
134

====

- Tested on: Wolbachia pipientis
- ASSAY COMMENT: Anti-Wolbachia Cell-Based Screen
- Format: functional
- Parameters: scale not given: in the data most compounds retested in dose-response had high values
- CONDITION PARAMETERS: 5 µM
Out of some 48,000 compounds screened, about 13,000 (27%) showed an effect of 50% or more. Some of the results follow.
RECORDED METRIC: Percent Effect (%)
One number for each entry, in %.

Would you please look over these solved cases?
O=C(O)C(F)(F)F.c1cnc(N2CCOC3(COCCN(Cc4cc[nH]n4)C3)C2)nc1 (stereo unspecified) | -4.382
CNC(=O)c1ccc2c(c1)C1(CCN(CCOC)CC1)C(=O)N2.O=C(O)C(F)(F)F | 94.3
Fc1cnc(N2CCC3(CC2)CN(Cc2cccs2)CCO3)nc1.O=C(O)C(F)(F)F.O=C(O)C(F)(F)F | 98.63
Cn1cc(CN2CCC3(CC2)C(=O)Nc2ccccc23)cn1.O=C(O)C(F)(F)F | -7.765

Please look at the items below and tell me Percent Effect for each one, in order.
1. CC(C)(O)CNc1ccc(C#N)c(C(F)(F)F)c1
2. CN(C)C(=O)CN1CCOCC2(C1)CN(c1ncccn1)CCO2.O=C(O)C(F)(F)F (stereo unspecified)
3. COc1cccc(C2SCC(=O)Nc3ccsc32)c1 (stereo unspecified)
4. O=S(=O)(c1cccc(Cl)c1)N1C[C@@H]2CCN[C@@H]2C1
5. O=C(Cc1ccc(O)c(Cl)c1)N1CCN(CC2CC2)[C@@H]2CS(=O)(=O)C[C@@H]21
6. Cc1cnc(N2CCCC3(CCCN(C)C3)C2)nc1 (stereo unspecified)
7. CCN1CCC12CCN(C(=O)c1cc(C)on1)C2.O=C(O)C(F)(F)F (stereo unspecified)
8. Cc1cnc(N2CCC3(CC2)CN(Cc2cccs2)CCO3)nc1.O=C(O)C(F)(F)F.O=C(O)C(F)(F)F

1: 7.337; 2: 101.1; 3: -17.04; 4: -5.104; 5: 2.879; 6: -6.547; 7: -17.49; 8: 102.1

Please look at the items below and tell me Percent Effect for each one, in order.
1. CC(C)n1[nH]c(=O)c2c1NC(=O)CSC2c1cccc(OCC(N)=O)c1 (stereo unspecified)
2. CC(=O)N1CCC2(CN(CC3CCCC3)C2)C1.O=C(O)C(F)(F)F
3. CCn1ncc(CN2CCCC(C(=O)c3ccc(Cl)cc3)C2)c1C (stereo unspecified)
4. CC(C)n1[nH]c(=O)c2c1NC(=O)CSC2c1ccc(OCC(N)=O)cc1 (stereo unspecified)
5. CC(C)(O)c1cn(C[C@H]2C[C@@H]3CCN2C[C@@H]3C(=O)N2CCOCC2)nn1
6. CC[C@@H]1N(CC2CC2)CCC[C@]12CCC(=O)N2.O=C(O)C(F)(F)F

107.3
-16.93
-8.229
116.2
-10.14
-18.87

Please look at the items below and tell me Percent Effect for each one, in order.
1. CCN(CC)C(=O)C1CCC2(CCNCC2)CO1.Cl (stereo unspecified)
2. O=C(O)C(F)(F)F.OCCN1CCOC2(CCCN(c3ncc(F)cn3)C2)C1 (stereo unspecified)
3. Cc1cnc(N2CCOC3(CCCN(C)C3)C2)nc1.O=C(O)C(F)(F)F (stereo unspecified)

1: 2.217; 2: 13; 3: -2.261
